- target: human p38alfa (SAPKa) enzyme (Homo sapiens, UniProt Q16539)
- Construct: purchased University of Dundee
- Sequence (Q16539 whole entry): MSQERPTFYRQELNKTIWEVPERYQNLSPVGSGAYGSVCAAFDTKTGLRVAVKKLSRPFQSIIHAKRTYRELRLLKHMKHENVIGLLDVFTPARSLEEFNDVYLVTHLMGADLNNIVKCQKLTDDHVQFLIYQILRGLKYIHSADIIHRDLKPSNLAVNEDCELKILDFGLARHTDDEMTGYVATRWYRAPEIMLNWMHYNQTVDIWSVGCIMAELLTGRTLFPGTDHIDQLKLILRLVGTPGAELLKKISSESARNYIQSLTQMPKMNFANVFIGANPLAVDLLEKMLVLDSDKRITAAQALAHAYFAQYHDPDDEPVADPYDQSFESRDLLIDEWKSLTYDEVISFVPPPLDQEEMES
- test.protocol: p38alpha enzymatic inhibition assay (FRET, ATF2 substrate)
- Format: biochemical
- measurement.conditions: 1 h pre-incubation; ATF2 0.62 μM, ATP 60 μM; 1 h at 25° C.; read-out: p38α IC50
Each entry below carries its reported IC50.
value.type: IC50

1. Cc1c(F)cc(C(=O)NC2CC2)cc1-c1ccn2c(=O)n(CC(C)(C)C)nc2c1 :: 2 nM
2. Cc1c(F)cc(C(=O)NC2CC2)cc1-c1ccn2c(=O)n(-c3ccccc3Cl)nc2c1 :: 1.08 nM
